Source listed as ChEMBL document CHEMBL1772985.

target: 5-hydroxytryptamine receptor 1A (Homo sapiens) (UniProt P08908); assay: Agonist activity at 5HT1A receptor assessed as stimulation of [35S]GTPgammaS binding relative to control; type: functional; design: concentration or dose not given beside the values
Sequence (P08908 whole entry): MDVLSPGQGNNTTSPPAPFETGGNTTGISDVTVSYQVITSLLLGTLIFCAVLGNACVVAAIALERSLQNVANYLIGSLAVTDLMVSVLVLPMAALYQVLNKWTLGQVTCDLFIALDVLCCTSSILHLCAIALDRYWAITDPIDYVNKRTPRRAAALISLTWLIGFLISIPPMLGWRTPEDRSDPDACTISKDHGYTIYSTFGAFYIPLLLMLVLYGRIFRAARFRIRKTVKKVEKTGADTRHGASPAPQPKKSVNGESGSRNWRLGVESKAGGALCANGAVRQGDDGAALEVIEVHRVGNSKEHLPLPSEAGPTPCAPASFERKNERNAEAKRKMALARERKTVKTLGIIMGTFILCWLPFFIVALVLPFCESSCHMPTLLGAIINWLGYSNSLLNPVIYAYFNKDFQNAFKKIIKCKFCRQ
What Activity was measured for each of the following?
Hi! Could you send only the number? It should be in %, unit omitted.

I would be grateful if you could share the reported Activity for COc1ccccc1N1CCN(CC(F)CCNC(=O)c2cc3ccccc3o2)CC1 (stereo unspecified) .
60

I would be grateful if you could share the reported Activity for COc1ccccc1N1CCN(CC(F)CCNC(=O)c2ccc(-c3ccccn3)cc2)CC1 (stereo unspecified) .
73

I would be grateful if you could share the reported Activity for COc1ccc2oc(C(=O)NCCC(F)CN3CCN(c4ccccc4OC)CC3)cc2c1 (stereo unspecified) .
76

I would be grateful if you could share the reported Activity for O=C(NCCC(F)CN1CCN(c2cccc(Cl)c2Cl)CC1)c1cc2ccccc2[nH]1 (stereo unspecified) .
88

I would be grateful if you could share the reported Activity for COc1ccccc1N1CCN(CC(F)CCNC(=O)c2cc3ccccc3[nH]2)CC1 (stereo unspecified) .
83

I would be grateful if you could share the reported Activity for COc1ccccc1N1CCN(CC(F)CCNC(=O)c2cc3ccccc3s2)CC1 (stereo unspecified) .
57
